Just for reference, paper PMC6018403 is where these values come from.

- assay.notes: Multi-component pharmacokinetic study of GQD, GQD-GC and single herb extracts in rats (plasma, LC/MS/MS)
- Assay type: in vivo, Sprague-Dawley rats
- experimental.setup: male, Sprague-Dawley, rat, in vivo; GQD-GC group (GQD without Gan-Cao): rats, oral 16.5 g/kg, plasma; read-out: Tmax
measurement.name: Tmax (min)
Note: unit min is implicit; provide only the numeric part.

Give the reported value of Tmax for this record: "O=c1c(-c2ccc(O)cc2)coc2cc(O)ccc12"
15

Return reported Tmax. Input compound: COc1cc(-c2coc3c(C4OC(COC5OCC(O)(CO)C5O)C(O)C(O)C4O)c(O)ccc3c2=O)ccc1O (stereo not drawn)
21

Provide measured Tmax value, entry: "O=c1c(-c2ccc(O)cc2)coc2cc(O[C@@H]3O[C@H](CO)[C@@H](O)[C@H](O)[C@H]3O)ccc12"
34.8
